I'd be grateful if you could share measured IC50 for these entries.
- assayed target: UniProt P21453
- Sequence (P21453 whole entry, species assumed): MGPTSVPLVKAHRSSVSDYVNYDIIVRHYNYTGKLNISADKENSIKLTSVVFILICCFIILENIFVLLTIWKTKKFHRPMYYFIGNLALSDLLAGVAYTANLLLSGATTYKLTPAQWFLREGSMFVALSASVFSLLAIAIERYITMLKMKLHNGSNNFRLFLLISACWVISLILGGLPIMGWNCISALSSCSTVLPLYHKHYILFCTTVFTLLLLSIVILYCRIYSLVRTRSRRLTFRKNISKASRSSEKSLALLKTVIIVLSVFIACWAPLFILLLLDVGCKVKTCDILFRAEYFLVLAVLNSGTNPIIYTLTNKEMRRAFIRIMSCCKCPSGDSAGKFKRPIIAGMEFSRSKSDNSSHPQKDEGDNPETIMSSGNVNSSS
- method notes: Receptor binding assay, [33P]sphingosine 1-phosphate competition, S1P1
- particulars: 384 well-plate; read-out: S1P1 binding IC50 (M) (384 well-plate)
Where a name gives a salt, the structure may show the parent alone.
Numbers only, in M.

Use the examples below as a reference point.
# molecule, reported endpoint, endpoint value
data = [
    ("COCc1cc(-c2nc(-c3ccnc(CNCC(=O)O)c3)no2)ccc1-c1ccccc1C", "IC50", "3.19e-09"),
    ("COCc1cc(-c2nc(-c3cnc(NCCC(=O)O)c(Cl)c3)no2)ccc1-c1ccccc1C [Example 37, hydrochloride salt]", "IC50", "1.06e-08"),
    ("Cc1ccccc1-c1ccc(-c2nc(-c3ccnc(CN(C)CC(=O)O)c3)no2)cc1C(F)(F)F", "IC50", "9.46e-09"),
    ("CCOc1cc(-c2nc(-c3cnc(NCCC(=O)O)c(Cl)c3)no2)ccc1-c1ccccc1C [Example 65, hydrochloride salt]", "IC50", "7.95e-09"),
    ("COCc1cc(-c2nc(-c3ccc(N)nc3)no2)ccc1-c1ccccc1F", "IC50", "1.82e-08"),
]

Hi team, please reply with IC50 for each item in this list.
1. COCc1cc(-c2nc(-c3ccc(NCCCO)nc3)no2)ccc1-c1ccccc1C
2. COCc1cc(-c2nc(-c3ccnc(NCC(=O)O)c3)no2)ccc1-c1ccccc1C [Example 11, hydrochloride salt]
3. COCc1cc(-c2nc(-c3cnc(N)c(C)c3)no2)ccc1-c1ccccc1F
4. COCc1cc(-c2nc(-c3cnc(N)c(C)c3)no2)ccc1-c1ccccc1Cl
5. Cc1ccccc1-c1ccc(-c2nc(-c3cnc(NCCC(=O)O)c(Cl)c3)no2)cc1C(F)(F)F [Example 61, hydrochloride salt]
6. Cc1cc(-c2nc(-c3ccnc(CN(C)CC(=O)O)c3)no2)ccc1-c1ccccc1C(F)(F)F

stdout:
1. 1.72e-08
2. 6.42e-08
3. 2.15e-08
4. 2.16e-08
5. 9.48e-09
6. 2.76e-08

For every item below, please supply its IC50.
1. Cc1ccccc1-c1ccc(-c2nc(-c3cnc(NCCC(=O)O)c(C)c3)no2)cc1C(F)(F)F [Example 59, hydrochloride salt]
2. CCOc1cc(-c2nc(-c3cnc(N)c(C)c3)no2)ccc1-c1ccccc1C(F)(F)F
3. Cc1cc(-c2nc(-c3ccc(CN(C)CC(=O)O)nc3)no2)ccc1-c1ccccc1C(F)(F)F
4. COCc1cc(-c2nc(-c3cnc(NCCC(=O)O)c(Cl)c3)no2)ccc1-c1cccc(F)c1C [Example 72, hydrochloride salt]

stdout:
["4.56e-08", "1.49e-08", "2.5e-08", "8.69e-09"]
